Each entry below lists one item and its recorded IC50 value.
Tested on: Target C CJ mRNA
Experiment: Gene panel canonical junction qPCR splicing assay, Target C
Format: cell-based
Details: Table 4, read-out: Target C IC50 (decrease in CJ mRNA levels)
quantity-name: IC50

{"columns": ["molecule", "quantity-name", "value-measured"],
 "data": [
  ["CC(C)N[C@@H]1CCN(c2ccc3nc(-c4cc5cn(C)nc5cc4O)ccc3n2)C1", "IC50", "< 100 nM"],
  ["Cc1c(O)c(-c2ccc3nc(N4CC[C@H](NC5(C)CC5)C4)ccc3n2)cc2cn(C)nc12 (single isomer, unassigned)", "IC50", "< 100 nM"],
  ["Cc1c(O)c(-c2ccc3nc(N4CC[C@@H](NC5(C)CC5)C4)ccc3n2)cc2cn(C)nc12 (single isomer, unassigned)", "IC50", "< 100 nM"]
]}

###

Test system: Target C CJ mRNA
Experiment: Gene panel canonical junction qPCR splicing assay, Target C
Assay type: cell-based
Conditions: Table 4, read-out: Target C IC50 (decrease in CJ mRNA levels)
pIC50: −log10 of the molar value.

{"columns": ["compound", "study-target", "pIC50"],
 "data": [
  ["Cn1cc2cc(-c3ccc4nc(N5CC[C@H](NC6(C)CC6)C5)ccc4n3)c(O)c(F)c2n1 (single isomer, unassigned)", "Target C CJ mRNA", "> 7.00"],
  ["Cc1nc2cc(O)c(-c3ccc4nc(N5CCC(NC(C)(C)C)C5)ccc4n3)cc2s1 (stereo not shown)", "Target C CJ mRNA", "< 5.00"],
  ["Cc1nc2c(C)c(O)c(-c3ccc4nc(N5CCC(NC6CCC6)C5)ccc4n3)cc2o1 (single isomer, unassigned) [Compound 237]", "Target C CJ mRNA", "> 7.00"],
  ["COc1cc2c(=O)n(C)cnc2cc1-c1ccc2nc(N3CCC(NC(C)(C)C)C3)ccc2n1 (stereo not shown)", "Target C CJ mRNA", "< 5.00"],
  ["Cc1cn2nc(-c3ccc4nc(C5CCNCC5)ccc4n3)c(O)cc2n1", "Target C CJ mRNA", "5.00 to 6.00"],
  ["Cc1cc(=O)c2cc(O)c(-c3ccc4nc(N5CCC(NC(C)(C)C)C5)ccc4n3)cc2o1 (stereo not shown)", "Target C CJ mRNA", "< 5.00"],
  ["Cc1nc2cc(O)c(-c3ccc4nc(N5CC[C@H](NC6CC6)C5)ccc4n3)cc2o1 (single isomer, unassigned)", "Target C CJ mRNA", "6.00 to 7.00"],
  ["Cn1cnc2cc(-c3ccc4nc(N5CCC(NC(C)(C)C)C5)ccc4n3)c(O)cc2c1=O (stereo not shown)", "Target C CJ mRNA", "< 5.00"],
  ["Cn1cc2cc(-c3ccc4nc(C5CCNCC5)ccc4n3)c(O)c(F)c2n1", "Target C CJ mRNA", "> 7.00"],
  ["CCC1CN(c2ccc3nc(-c4cc5cn(C)nc5cc4O)ccc3n2)CCN1 (stereo not shown)", "Target C CJ mRNA", "5.00 to 6.00"],
  ["CC1CN(c2ccc3nc(-c4cc5cn(C)nc5cc4O)ccc3n2)CCN1 (stereo not shown)", "Target C CJ mRNA", "5.00 to 6.00"],
  ["CN(C(=O)Nc1cn[nH]c1)c1cc2nc(N3CCNCC3)ccc2cn1", "Target C CJ mRNA", "> 7.00"],
  ["Cn1cc2cc(-c3ccc4nc(N5CCNC6(CC6)C5)ccc4n3)c(O)cc2n1", "Target C CJ mRNA", "5.00 to 6.00"],
  ["Cn1cc2cc(-c3ccc4nc(C5CCNCC5)ccc4n3)cc(F)c2n1", "Target C CJ mRNA", "5.00 to 6.00"],
  ["CCN[C@@H]1CCN(c2ccc3nc(-c4cc5cn(C)nc5cc4O)ccc3n2)C1", "Target C CJ mRNA", "6.00 to 7.00"],
  ["Cc1c(O)c(-c2ccc3nc(N4CCC(NC5(C)CC5)C4)ccc3n2)cc2cn(C)nc12 (racemic)", "Target C CJ mRNA", "> 7.00"]
]}

###

System: SMN2 CJ mRNA
Test: Gene panel canonical junction qPCR splicing assay, SMN2
Format: cell-based
Conditions: Table 4, read-out: SMN2 IC50 (decrease in CJ mRNA levels)
pIC50: −log10 of the molar value. Where a name gives a salt, the structure may show the parent alone.

{"columns": ["compound", "pIC50"],
 "data": [
  ["CN(c1ccc2nc(-c3cc4cn(C)nc4cc3O)ccc2n1)C1CC(C)(C)NC(C)(C)C1", "6.00 to 7.00"],
  ["Cn1cc2c(O)c(-c3ccc4nc(C5CCNCC5)ccc4n3)ccc2n1", "5.00 to 6.00"],
  ["Cc1nc2c(F)c(O)c(-c3ccc4nc(N5CC[C@@H](NC6CC6)C5)ccc4n3)cc2o1 (single isomer, unassigned)", "> 7.00"],
  ["CCN[C@@H]1CCN(c2ccc3nc(-c4cc5cn(C)nc5cc4O)ccc3n2)C1", "> 7.00"],
  ["Cn1cc2cc(-c3ccc4nc(N5CC[C@H](N[C@H]6C[C@H](F)C6)C5)ccc4n3)c(O)cc2n1", "> 7.00"],
  ["CC(C)(C)NC1CCN(c2ccc3nc(-c4cc5cnccc5cc4O)ccc3n2)C1 (stereo not shown)", "< 5.00"],
  ["Cn1cc2cc(-c3ncc4nc(C5CCNCC5)ccc4n3)c(O)cc2n1", "> 7.00"],
  ["Cc1nc2cc(O)c(-c3ccc4nc(N5CC[C@H](NC(C)(C)C)C5)ccc4n3)cc2o1", "> 7.00"],
  ["Cc1nc2cc(O)c(-c3ccc4nc(N5CC[C@@H](NC6CC6)C5)ccc4n3)cc2o1 (single isomer, unassigned)", "> 7.00"],
  ["Cn1cc2cc(-c3ccc4nc(C5CCNCC5)ccc4n3)c(O)c(F)c2n1", "> 7.00"],
  ["Cn1cnc2cc(-c3ccc4nc(N5CCC(NC(C)(C)C)C5)ccc4n3)c(O)cc2c1=O (stereo not shown)", "< 5.00"],
  ["COc1cc2ccncc2cc1-c1ccc2nc(N3CCC(NC(C)(C)C)C3)ccc2n1 (stereo not shown)", "5.00 to 6.00"],
  ["Cc1nc2cc(O)c(-c3ccc4nc(N5CC[C@@H](NC(C)(C)C)C5)ccc4n3)cc2o1", "> 7.00"],
  ["CN1CC2(C1)CN(c1ccc3nc(-c4cc5cn(C)nc5cc4O)ccc3n1)C2", "> 7.00"],
  ["Cc1cn2cc(-c3ccc4nc(C5CCNCC5)ccc4n3)c(O)c(C)c2n1 [Compound 151, hydrochloride]", "6.00 to 7.00"],
  ["Cn1cc2cc(-c3ccc4nc(C5CCNCC5)ccc4n3)c(O)cc2n1", "> 7.00"]
]}

###

Tested on: HTT mRNA
Assay: Splicing assay (RT-qPCR) of HTT mRNA alternative junction (AJ) and canonical junction (CJ)
Format: cell-based
Settings: decrease in CJ mRNA; A673 or K562 cells, 24 hours; read-out: HTT CJ IC50
pIC50: −log10 of the molar value.
Recorded measurements of pIC50, one per entry

{"columns": ["compound", "pIC50"],
 "data": [
  ["Cn1cc2cc(-c3ccc4nc(C5CCNCC5)ccc4n3)cc(F)c2n1", "5.00 to 6.00"],
  ["Cn1cc2c(O)c(-c3cc4ccc(C5CCNCC5)nc4cn3)cc(Br)c2n1", "5.00 to 6.00"],
  ["Cn1cc2cc(-c3ccc4nc(N5CC[C@H](NC6CC6)C5)ccc4n3)c(O)cc2n1", "> 7.00"],
  ["Cc1nc2cc(O)c(-c3ccc4nc(N5CCC(NC(C)(C)C)C5)ccc4n3)cc2o1 (stereo not shown)", "> 7.00"]
]}

###

Test system: Target C CJ mRNA
Test: Gene panel canonical junction qPCR splicing assay, Target C
Assay type: cell-based
Settings: Table 4, read-out: Target C IC50 (decrease in CJ mRNA levels)
pIC50: −log10 of the molar value.

{"columns": ["molecule", "pIC50"],
 "data": [
  ["Cc1cn2nc(-c3ccc4nc(N5CCC(NC(C)(C)C)C5)ccc4n3)cc2c(C)n1 (centres unmarked)", "> 7.00"],
  ["Cn1cc2cc(-c3ccc4nc(N5CC6(CNC6)C5)ccc4n3)c(O)cc2n1", "6.00 to 7.00"],
  ["Cn1cc2cc(-c3ccc4nc(N5CCC(NC(C)(C)C)C5)ccc4n3)c(O)c(F)c2n1 (centres unmarked)", "> 7.00"],
  ["Cn1cc2cc(-c3ccc4nc(N5CC[C@@H](NC6(C)CC6)C5)ccc4n3)c(O)cc2n1 (single isomer, unassigned)", "> 7.00"],
  ["Cn1cc2cc(-c3ccc4nc(N5CC[C@H](NCC(F)(F)F)C5)ccc4n3)c(O)cc2n1", "< 5.00"],
  ["CN(C)C1CCN(c2ccc3nc(-c4cc5cn(C)nc5cc4O)ccc3n2)CC1", "5.00 to 6.00"],
  ["Cc1nc(-c2ccc3nc(N4CCC(NC(C)(C)C)C4)ccc3n2)cc2cn(C)nc12 (centres unmarked)", "< 5.00"],
  ["CCN[C@H]1CCN(c2ccc3nc(-c4cc5cn(C)nc5cc4O)ccc3n2)C1", "6.00 to 7.00"]
]}
